system: 885724-159-R-J1-PDC complex spheroid viability; experiment: Anticancer human tumor 885724-159-R-J1-PDC patient-derived pancreatic adenocarcinoma cell line growth inhibition [GQUAD]; settings: second compound 0.0316 µM; first compound 1 µM; stronger effect = lower value
Measurement Name: viability, T/C (%)
Express your answer in %, writing the number without its unit.

### Prompt Fill in the blank: the reported viability, T/C of CC1COCCN1c1cc(C2(S(C)(=N)=O)CC2)nc(-c2ccnc3[nH]ccc23)n1 (stereo not given) + Cc1[nH]c2ccc(F)cc2c1-c1nc2c3cccnc3c3ncccc3c2[nH]1 is ____.
### Response 90.3

### Prompt Recorded viability, T/C for CC1COCCN1c1cc(C2(O)CC3CCC(C2)O3)c2cnn(-c3ccn[nH]3)c2n1 (stereo not given) + Cc1[nH]c2ccc(F)cc2c1-c1nc2c3cccnc3c3ncccc3c2[nH]1 , please?
### Response 55.2

### Prompt Could you tell me which viability, T/C is on file for CC1COCCN1c1cc(-c2ccnn2C)c2ccnc(-c3ccn[nH]3)c2n1 (stereo not given) + Cc1[nH]c2ccc(F)cc2c1-c1nc2c3cccnc3c3ncccc3c2[nH]1 ?
### Response 76.9

### Prompt Item under review: CC(=O)O[C@H]1C(=O)[C@@]2(C)[C@H]([C@H](OC(=O)c3ccccc3)[C@]3(O)C[C@H](OC(=O)[C@H](O)[C@@H](NC(=O)c4ccccc4)c4ccccc4)C(C)=C1C3(C)C)[C@]1(OC(C)=O)CO[C@@H]1C[C@@H]2O + Cc1[nH]c2ccc(F)cc2c1-c1nc2c3cccnc3c3ncccc3c2[nH]1 . Reported viability, T/C?
### Response 91.4

### Prompt # lookup: viability, T/C of COc1ccc([C@@H](O)c2cc(-c3ncnc4cc(N5CCOCC5)ccc34)c(F)cc2Cl)nn1 + CN(C)c1ccc(Nc2c3ccc(NC(=O)CCN4CCCC4)cc3nc3cc(NC(=O)CCN4CCCC4)ccc23)cc1
### Response 85.3

----------
system: 885724-159-R-J1-PDC complex spheroid viability; experiment: Anticancer human tumor 885724-159-R-J1-PDC cell line growth inhibition [GQUAD]; conditions: second compound 0.1 µM; first compound 3.16 µM; stronger effect = lower value;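 note: spheroids exposed to agents for seven days before readout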;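 for viability, T/C: percent of vehicle control viability where 100% = DMSO wells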
Measurement Name: viability, T/C (%)
Provide only the numeric value, understood in %.

### Prompt API: value(readout= viability, T/C, system= 885724-159-R-J1-PDC complex spheroid viability, query= C=CC(=O)N1CCN(c2nc(=O)n(-c3c(C)ccnc3C(C)C)c3nc(-c4c(O)cccc4F)c(F)cc23)C(C)C1 (centres undefined) + Cc1cnc(CNC(=O)c2c(=O)c3ccc(N4CCCN(C)CC4)nc3n3c2sc2ccccc23)cn1 )
### Response 125

### Prompt 885724-159-R-J1-PDC complex spheroid viability / viability, T/C / CC(=O)O[C@H]1C(=O)[C@@]2(C)[C@H]([C@H](OC(=O)c3ccccc3)[C@]3(O)C[C@H](OC(=O)[C@H](O)[C@@H](NC(=O)c4ccccc4)c4ccccc4)C(C)=C1C3(C)C)[C@]1(OC(C)=O)CO[C@@H]1C[C@@H]2O + CN(C)c1ccc(Nc2c3ccc(NC(=O)CCN4CCCC4)cc3nc3cc(NC(=O)CCN4CCCC4)ccc23)cc1 : value?
### Response 83.9

### Prompt Find viability, T/C (885724-159-R-J1-PDC complex spheroid viability) for the entry CC(C)(O)C1CCC(Nc2ccc3ncc(-c4cccc(C(F)(F)F)c4)n3n2)CC1 (centres undefined) + Cc1[nH]c2ccc(F)cc2c1-c1nc2c3cccnc3c3ncccc3c2[nH]1
### Response 41.4

### Prompt Recall the recorded viability, T/C for CC1COCCN1c1cc(C2(O)CC3CCC(C2)O3)c2cnn(-c3ccn[nH]3)c2n1 (centres undefined) + CN(C)c1ccc(Nc2c3ccc(NC(=O)CCN4CCCC4)cc3nc3cc(NC(=O)CCN4CCCC4)ccc23)cc1 with 885724-159-R-J1-PDC complex spheroid viability and state it.
### Response 42.8

----------
Provide the reported IC50 of each item.
system: 885724-159-R-J1-PDC complex spheroid viability; test: Anticancer human tumor 885724-159-R-J1-PDC cell line growth inhibition [GQUAD]; conditions: curve of first compound; second compound 1 µM;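 note: spheroids exposed to agents for seven days before readout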
Report as a plain number; the unit µM is understood.

### Prompt May I ask what IC50 has been recorded for CC(C)(O)C1CCC(Nc2ccc3ncc(-c4cccc(C(F)(F)F)c4)n3n2)CC1 (stereo not given) + Cc1cnc(CNC(=O)c2c(=O)c3ccc(N4CCCN(C)CC4)nc3n3c2sc2ccccc23)cn1 ?
### Response 2.61

### Prompt Which measured IC50 value corresponds to Cc1[nH]c2ccccc2c1CCNCc1ccc(/C=C/C(=O)NO)cc1 + Cc1cnc(CNC(=O)c2c(=O)c3ccc(N4CCCN(C)CC4)nc3n3c2sc2ccccc23)cn1 ?
### Response 0.137

----------
test system: 885724-159-R-J1-PDC complex spheroid viability; assay: Anticancer human tumor 885724-159-R-J1-PDC cell line growth inhibition [GQUAD]; details: second compound 0.0316 µM; first compound 0.1 µM; stronger effect = lower value;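 note: spheroids exposed to agents for seven days before readout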;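 for viability, T/C: percent of vehicle control viability where 100% = DMSO wells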
Measurement Name: viability, T/C (%)
Numeric only. Scale: %

### Prompt Which viability, T/C value is on record for C#Cc1c(F)ccc2cc(O)cc(-c3ncc4c(N5CC6CCC(C5)N6)nc(OCC56CCCN5CC(F)C6)nc4c3F)c12 (stereo not given) + Cc1cnc(CNC(=O)c2c(=O)c3ccc(N4CCCN(C)CC4)nc3n3c2sc2ccccc23)cn1 ?
### Response 120

### Prompt Value lookup for viability, T/C; key = CC1COCCN1c1cc(C2(O)CC3CCC(C2)O3)c2cnn(-c3ccn[nH]3)c2n1 (stereo not given) + CN(C)c1ccc(Nc2c3ccc(NC(=O)CCN4CCCC4)cc3nc3cc(NC(=O)CCN4CCCC4)ccc23)cc1
### Response 74

### Prompt May I ask what viability, T/C has been recorded for CC(C)(O)C1CCC(Nc2ccc3ncc(-c4cccc(C(F)(F)F)c4)n3n2)CC1 (stereo not given) + Cc1cnc(CNC(=O)c2c(=O)c3ccc(N4CCCN(C)CC4)nc3n3c2sc2ccccc23)cn1 ?
### Response 86.4

### Prompt State the recorded viability, T/C for this entry: O=c1[nH]cc(F)c(=O)[nH]1 + Cc1cnc(CNC(=O)c2c(=O)c3ccc(N4CCCN(C)CC4)nc3n3c2sc2ccccc23)cn1
### Response 107

### Prompt GET /values?readout=viability, T/C&item= COc1cccc2c1C(=O)c1c(O)c3c(c(O)c1C2=O)CC(O)(C(=O)CO)CC3OC1CC(N)C(O)C(C)O1 (stereo not given) + Cc1[nH]c2ccc(F)cc2c1-c1nc2c3cccnc3c3ncccc3c2[nH]1
### Response 98.8

----------
system: 885724-159-R-J1-PDC complex spheroid viability; assay: Anticancer human tumor 885724-159-R-J1-PDC cell line growth inhibition [GQUAD]; conditions: second compound 0.1 µM; first compound 0.000999 µM; stronger effect = lower value;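 note: spheroids exposed to agents for seven days before readout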;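 for viability, T/C: percent of vehicle control viability where 100% = DMSO wells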
Please provide measured viability, T/C for the entries that follow.
State just the number; it will be interpreted in %.

### Prompt Which viability, T/C value belongs to Cn1ncnc1[C@H]1c2n[nH]c(=O)c3cc(F)cc(c23)N[C@@H]1c1ccc(F)cc1 + Cc1[nH]c2ccc(F)cc2c1-c1nc2c3cccnc3c3ncccc3c2[nH]1 ?
### Response 97.5

### Prompt Recorded viability, T/C for Cn1ncnc1[C@H]1c2n[nH]c(=O)c3cc(F)cc(c23)N[C@@H]1c1ccc(F)cc1 + Cc1cnc(CNC(=O)c2c(=O)c3ccc(N4CCCN(C)CC4)nc3n3c2sc2ccccc23)cn1 , please?
### Response 117

### Prompt Any idea what viability, T/C was measured for CCc1c2c(nc3ccc(O)cc13)-c1cc3c(c(=O)n1C2)COC(=O)[C@]3(O)CC + CN(C)c1ccc(Nc2c3ccc(NC(=O)CCN4CCCC4)cc3nc3cc(NC(=O)CCN4CCCC4)ccc23)cc1 ?
### Response 93.7

### Prompt What does the data say about its viability, T/C? Entry: Cc1[nH]c2ccccc2c1CCNCc1ccc(/C=C/C(=O)NO)cc1 + CN(C)c1ccc(Nc2c3ccc(NC(=O)CCN4CCCC4)cc3nc3cc(NC(=O)CCN4CCCC4)ccc23)cc1
### Response 99.8

### Prompt Report viability, T/C for CCc1c2c(nc3ccc(O)cc13)-c1cc3c(c(=O)n1C2)COC(=O)[C@]3(O)CC + Cc1cnc(CNC(=O)c2c(=O)c3ccc(N4CCCN(C)CC4)nc3n3c2sc2ccccc23)cn1 please.
### Response 114

### Prompt Which viability, T/C value belongs to Cn1ncnc1[C@H]1c2n[nH]c(=O)c3cc(F)cc(c23)N[C@@H]1c1ccc(F)cc1 + CN(C)c1ccc(Nc2c3ccc(NC(=O)CCN4CCCC4)cc3nc3cc(NC(=O)CCN4CCCC4)ccc23)cc1 ?
### Response 101

### Prompt What value of viability, T/C has been recorded for this entry: CC[C@@]1(O)C(=O)OCc2c1cc1n(c2=O)Cc2cc3c(CN(C)C)c(O)ccc3nc2-1 + Cc1cnc(CNC(=O)c2c(=O)c3ccc(N4CCCN(C)CC4)nc3n3c2sc2ccccc23)cn1
### Response 125

### Prompt Look up viability, T/C for this compound: CC[C@@]1(O)C(=O)OCc2c1cc1n(c2=O)Cc2cc3c(CN(C)C)c(O)ccc3nc2-1 + Cc1[nH]c2ccc(F)cc2c1-c1nc2c3cccnc3c3ncccc3c2[nH]1
### Response 98.9

### Prompt Returns the measured viability, T/C for the input compound. Input: CC[C@@]1(O)C(=O)OCc2c1cc1n(c2=O)Cc2cc3c(CN(C)C)c(O)ccc3nc2-1 + CN(C)c1ccc(Nc2c3ccc(NC(=O)CCN4CCCC4)cc3nc3cc(NC(=O)CCN4CCCC4)ccc23)cc1
### Response 95.9

### Prompt Would you kindly share the measured viability, T/C for Cc1[nH]c2ccccc2c1CCNCc1ccc(/C=C/C(=O)NO)cc1 + Cc1[nH]c2ccc(F)cc2c1-c1nc2c3cccnc3c3ncccc3c2[nH]1 ?
### Response 95.9

### Prompt Dear colleague, I am looking for the recorded viability, T/C of the following compound: CCc1c2c(nc3ccc(O)cc13)-c1cc3c(c(=O)n1C2)COC(=O)[C@]3(O)CC + Cc1[nH]c2ccc(F)cc2c1-c1nc2c3cccnc3c3ncccc3c2[nH]1
### Response 104

### Prompt I'd like to know its viability, T/C. The compound in question is Cc1[nH]c2ccccc2c1CCNCc1ccc(/C=C/C(=O)NO)cc1 + Cc1cnc(CNC(=O)c2c(=O)c3ccc(N4CCCN(C)CC4)nc3n3c2sc2ccccc23)cn1
### Response 100

Source listed as PubChem BioAssay AID2060502.
